All values here come from patent US7179819B2.

Task for the reader: assign each of the following compounds its reported melting point.

// known answers, use as guide
> print(dat)
                                   compound                result
1  COc1cc(CC(=O)N2C[C@@H](F)C[C@H]2COc2ccc(C(=O)O)cc2)ccc1NC(=O)Nc1ccccc1C(F)(F)F         129 to 132 °C
2  Cc1ccccc1NC(=O)Nc1ccc(CC(=O)N2CCCC2CCc2ccc(C(=O)O)cc2)cc1 (centres unmarked)         180 to 190 °C
3  COc1cc(CC(=O)N2CCCC2C#Cc2ccc(C(=O)O)cc2)ccc1NC(=O)Nc1ccccc1 (centres unmarked)         154 to 157 °C
4  O=C(Nc1ccc(CC(=O)N2C[C@@H](F)C[C@H]2COc2ccc(C(=O)O)cc2)cc1)Nc1c(Cl)cccc1Cl  168 to 172 °C (dec.)
5  COc1cc(CC(=O)N[C@H](C)COc2ccc(C(=O)O)cc2OC)ccc1NC(=O)Nc1ccccc1C         168 to 169 °C
6  COc1cc(CC(=O)N2C[C@@H](NS(=O)(=O)c3ccc4ccccc4c3)C[C@H]2COc2ccc(C(=O)O)cc2)ccc1NC(=O)Nc1ccccc1Cl         135 to 142 °C
7  Cc1ccccc1NC(=O)Nc1ccc(CC(=O)N2CCC[C@H]2COc2ccc(C(=O)O)cc2)cc1C         191 to 193 °C
8  Cc1ccccc1NC(=O)Nc1ccc(CC(=O)N[C@@H](C)COc2ccc(C(=O)O)cc2Cl)cc1         228 to 231 °C

For each listed entry, give its melting point.
1. COc1cc(CC(=O)N(C)CCOc2ccc(C(=O)O)cc2NC(C)C)ccc1NC(=O)Nc1ccccc1C
2. COc1cc(CC(=O)N2C[C@@H](O)C[C@H]2COc2ccc(C(=O)O)cc2)ccc1NC(=O)Nc1ccccc1C

Result ::
130 to 135 °C
148 to 152 °C (dec.)

For each listed entry, give its melting point.
1. COc1cc(CC(=O)N[C@@H](C)COc2ccc(C(=O)O)cc2)ccc1NC(=O)Nc1ccccc1C
2. COc1cc(C(=O)O)ccc1C#CC1CCCN1C(=O)Cc1ccc(NC(=O)Nc2ccccc2C)c(OC)c1 (centres unmarked)
3. COc1cc(CC(=O)N2C[C@@H](Oc3ccc4ncccc4c3)C[C@H]2COc2ccc(C(=O)O)cc2)ccc1NC(=O)Nc1ccccc1Cl
4. COc1cc(CC(=O)N2CC[C@@H](Oc3ccc(C(=O)O)cc3)C2)ccc1NC(=O)Nc1ccccc1Cl

Result ::
1. 198 to 201 °C
2. 141 to 145 °C
3. 129 to 133 °C
4. 193 to 194 °C

* * *

Task for the reader: assign each of the following molecules its reported concentration at 15 min.
assay: Mouse bio-assay: serum concentration after oral dosing, determined by direct binding assay of diluted serum; details: female, Balb/c, serum, po, 10 mg/kg
Give bare numbers, in ng/mL.

// known answers, use as guide
> print(dat)
                                   molecule             test.readout  units.label  numeric.readout
1  COc1cc(CC(=O)N2[C@H](COc3ccc(C(=O)O)cc3)CC[C@@H]2c2ccccc2)ccc1NC(=O)Nc1ccccc1Cl [Compound 146]  concentration at 15 min        ng/mL              527
2  Cc1ccccc1NC(=O)Nc1ccc(CC(=O)N2C[C@@H](F)C[C@H]2COc2ccc(C(=O)O)cc2)cc1C [Compound 78]  concentration at 15 min        ng/mL              368
3  O=C(Nc1ccc(CC(=O)N2C[C@@H](F)C[C@H]2COc2ccc(C(=O)O)cc2)cc1Cl)Nc1ccccc1Br [Compound 92]  concentration at 15 min        ng/mL             2160
4  COc1cc(CC(=O)N2C[C@@H](Oc3ccc4ccccc4c3)C[C@H]2COc2ccc(C(=O)O)cc2)ccc1NC(=O)Nc1ccccc1Cl [Compound 124]  concentration at 15 min        ng/mL              841
5  Cc1ccccc1NC(=O)Nc1cc(F)c(CC(=O)N2C[C@@H](F)C[C@H]2COc2ccc(C(=O)O)cc2)cc1F [Compound 98]  concentration at 15 min        ng/mL             2800

For each listed entry, give its concentration at 15 min.
1. COc1cc(CC(=O)N2C3CCCCC3C[C@H]2COC2CCC(C(=O)O)CC2)ccc1NC(=O)Nc1ccccc1Br (stereo partly shown) [Compound 179]
2. Cc1cc(CC(=O)N2C[C@@H](F)C[C@H]2COc2ccc(C(=O)O)cc2)ccc1NC(=O)Nc1ccccc1Br [Compound 80]
3. Cc1cc(CC(=O)N2C[C@@H](F)C[C@H]2COc2ccc(C(=O)O)cc2)ccc1NC(=O)Nc1ccccc1Cl [Compound 79]
4. C#CCN(CCOc1ccc(C(=O)O)cc1)C(=O)Cc1ccc(NC(=O)Nc2ccccc2Cl)c(OC)c1 [Compound 309]
5. Cc1ccccc1NC(=O)Nc1ccc(CC(=O)N2C[C@@H](F)C[C@H]2COc2ccc(C(=O)O)cc2)c(F)c1F [Compound 97]
6. COc1cc(CC(=O)N2C[C@@H](OC)C[C@H]2COc2ccc(C(=O)O)cc2)ccc1NC(=O)Nc1ccccc1Br [Compound 134]

Result ::
1: 428; 2: 693; 3: 618; 4: 669; 5: 1730; 6: 224

For each listed entry, give its concentration at 15 min.
1. COc1cc(CC(=O)N2C[C@@H](Cl)C[C@H]2COc2ccc(C(=O)O)cc2)ccc1NC(=O)Nc1ccccc1Cl [Compound 102]
2. COc1cc(CC(=O)N2C3CCCCC3C[C@H]2COc2ccc(C(=O)O)cc2)ccc1NC(=O)Nc1ccccc1Cl (stereo partly shown) [Compound 166]

Result ::
1. 503
2. 360

* * *

Task for the reader: assign each of the following compounds its reported melting point.

> print(dat)
                                   compound                result
1  Cc1ccccc1NC(=O)Nc1ccc(CC(=O)N2CCCC2/C=C/c2ccc(C(=O)O)cc2)cc1 (stereo not shown)         165 to 168 °C
2  COc1cc(CC(=O)N2C[C@@H](O)C[C@H]2COc2ccc(C(=O)O)cc2)ccc1NC(=O)Nc1ccccc1Cl  138 to 142 °C (dec.)

For each listed entry, give its melting point.
1. COc1cc(CC(=O)N2CCC[C@H]2COC2CCC(C(=O)O)CC2)ccc1NC(=O)Nc1ccccc1Br (stereo partly shown)
2. CN[C@@H]1C[C@@H](COc2ccc(C(=O)O)cc2)N(C(=O)Cc2ccc(NC(=O)Nc3ccccc3C)c(OC)c2)C1
3. COc1cc(CC(=O)N2CCC[C@H]2COc2ccc(C(=O)O)cn2)ccc1NC(=O)Nc1ccccc1C (stereo in doubt)
4. COc1cc(CC(=O)N2CCC[C@H]2COC2CCC(C(=O)O)CC2)ccc1NC(=O)Nc1ccccc1C (stereo partly shown)
5. COc1cc(CC(=O)N2C3CCCCC3C[C@H]2COC2CCC(C(=O)O)CC2)ccc1NC(=O)Nc1ccccc1Cl (stereo partly shown)

Result ::
["108 to 111 °C", "162 to 164 °C", "125 to 128 °C", "110 to 113 °C", "120 to 121 °C"]

* * *

assay: Pharmacokinetic evaluation in mouse; assay type: in vivo; settings: plasma, iv, 10 mg/kg, 10 mg/kg (i.v.), line of AUC 0–6 hr, read-out: MRT (mean residence time)
Task for the reader: assign each of the following compounds its reported MRT.
Give bare numbers, in min.

> print(dat)
                              sample.smiles  test.readout  numeric.readout
1  Cc1cc(CC(=O)N2C[C@@H](F)C[C@H]2COc2ccc(C(=O)O)cc2)ccc1NC(=O)Nc1ccccc1Br           MRT               24

Query :: Please look up its MRT: Cc1ccccc1NC(=O)Nc1ccc(CC(=O)N2C[C@@H](F)C[C@H]2COc2ccc(C(=O)O)cc2)cc1Cl
Result :: 30

* * *

Task for the reader: assign each of the following molecules its reported melting point.
Where a name gives a salt, the structure may show the parent alone.

> print(dat)
                                   molecule         result
1  COc1cc(CC(=O)NCCOc2ccc(C(=O)O)cc2OC)ccc1NC(=O)Nc1ccccc1C [Compound 255]  180 to 181 °C
2  COc1cc(CC(=O)N(C)CCOc2ccc(C(=O)O)cc2N2CCCCC2)ccc1NC(=O)Nc1ccccc1F [Compound 289]  125 to 130 °C
3  COc1cc(CC(=O)N2C3CCCCC3C[C@H]2COc2ccc(C(=O)O)cc2)ccc1NC(=O)Nc1ccccc1C (stereo partly shown) [Compound 165]  130 to 134 °C
4  COc1cc(CC(=O)N2C[C@@H](Oc3ccc(C(=O)O)cc3)C[C@H]2COc2ccc(C(=O)O)cc2)ccc1NC(=O)Nc1ccccc1Cl [Compound 117]  150 to 153 °C
5  COc1cc(CC(=O)N2CCCC2CN2CCN(CC(=O)O)CC2)ccc1NC(=O)Nc1ccccc1C (stereo not shown) (as salt: salt)  160 to 170 °C
6  Cc1cc(CC(=O)N2CCC[C@H]2COc2ccc(C(=O)O)cc2)ccc1NC(=O)Nc1ccccc1Cl [Compound 81]  122 to 124 °C

Query :: Please look up its melting point: COc1cc(CC(=O)N2CCC[C@H]2COc2ccc(C(=O)O)cc2OC)ccc1NC(=O)Nc1ccccc1C [Compound 27]
Result :: 132 to 135 °C
